Parameter: AC50. Scope: all listed entries.
System: Clone20 osteoblast Shn3 3'UTR firefly luciferase, 24 h
Test: Shn3 3'UTR reporter inhibitors, dose response, cell-based, Clone20 osteoblasts, luminescence, dry powder, set 2 (AID 743417)
Inconclusive results are not listed.

Exercise: Reported AC50, compound C=C[C@]1(C)C=C2C(=O)[C@@]3(O)OC(=O)[C@@]4(CCCC(C)(C)[C@H]34)[C@@]2(O)CC1 : ____
Key: 4980 nM

Exercise: Please give the result for COc1ccc(NC(=O)CCOc2cc(C)ccc2C)cc1S(=O)(=O)N1CCCCC1 too.
Key: 10400 nM

* * *

Test system: Clone20 osteoblast Shn3 3'UTR firefly luciferase, 24 h
Experiment: Shn3 3'UTR reporter inhibitors, dose response, cell-based, Clone20 osteoblasts, luminescence, dry powder, set 2 (AID 743417)
Inconclusive results are not listed.
assay_metric: AC50

Cc1sc2ncnc(N3CCN(CCOc4ccc(Cl)cc4)CC3)c2c1C: 1350 nM
CN(c1ccccc1)S(=O)(=O)c1ccc(NC(=O)c2nc(S(C)(=O)=O)ncc2Cl)cc1: 502 nM
c1ccc(-c2cc(CSc3nc4ccccc4[nH]3)on2)cc1: 3760 nM
COc1ccc([C@@]23Oc4cc(OC)cc(OC)c4[C@]2(O)[C@H](O)[C@H](C(=O)N(C)C)[C@H]3c2ccccc2)cc1: < 260 nM
COc1ccc(C(=O)NC2CCCc3c2cnn3-c2cccc(C)c2C)c(OC)n1 (centres undefined): 1960 nM

Exercise: What does the record list as AC50 for Cc1cc(N2CCCC2=O)cc(C)c1S(=O)(=O)NCCOc1ccc(C(C)(C)C)cc1 ?
Key: 1150 nM

Exercise: Repeat for the following compound: C=CCNc1nc2c(c(=O)n(C)c(=O)n2C)n1CCCCCC
Key: 761 nM

Exercise: Would you kindly repeat that for COc1ccc(CNC(=O)C(c2ccc(C)cc2)N(Cc2cccs2)C(=O)c2ccc3c(c2)OCCO3)cc1 (centres undefined) ?
Key: 8100 nM

Exercise: And then Cc1ccc(CNC(=O)c2ccc3c(=O)c(O)c(-c4ccc(C)cc4)[nH]c3c2)cc1 , what is it?
Key: 2820 nM
